biological target: BChE (Homo sapiens, UniProt P06276); test: BChE inhibition, modified Ellman method; assay type: biochemical
Sequence (P06276 29-602): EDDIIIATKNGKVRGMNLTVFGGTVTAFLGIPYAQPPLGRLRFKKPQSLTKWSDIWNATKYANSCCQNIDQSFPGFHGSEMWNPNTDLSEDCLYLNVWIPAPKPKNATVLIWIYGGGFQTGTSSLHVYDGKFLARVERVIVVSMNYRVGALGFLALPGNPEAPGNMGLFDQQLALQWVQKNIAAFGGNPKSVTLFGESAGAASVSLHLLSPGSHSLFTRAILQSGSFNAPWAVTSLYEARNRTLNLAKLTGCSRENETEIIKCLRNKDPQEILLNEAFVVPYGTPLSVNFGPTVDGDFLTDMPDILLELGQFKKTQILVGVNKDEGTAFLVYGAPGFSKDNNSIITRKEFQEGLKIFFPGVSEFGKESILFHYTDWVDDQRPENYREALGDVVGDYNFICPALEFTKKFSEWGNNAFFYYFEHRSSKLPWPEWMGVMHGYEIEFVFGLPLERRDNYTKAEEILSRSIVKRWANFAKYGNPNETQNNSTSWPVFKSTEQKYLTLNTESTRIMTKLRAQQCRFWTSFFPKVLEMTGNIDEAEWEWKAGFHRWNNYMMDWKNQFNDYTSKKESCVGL
readout.name: IC50 (µM)
API: value field is a number in µM; no unit string.

# get_value(readout= IC50, system= BChE (Homo sapiens, UniProt P06276)) for COc1ccc(OC)c(NC2=C([N+](=O)[O-])C3(C(=O)Nc4ccc([N+](=O)[O-])cc43)C(C#N)=C(N)NN2)c1 (stereo not shown)
17.4

* * *

Below, each of the compounds is paired with its reported inhibition at 50 µM value.
molecular target: BChE (Homo sapiens, UniProt P06276); assay: BChE inhibition, modified Ellman method; format: biochemical; details: 50 µM; mean ± S.E of three to five independent experiments; read-out: BChE % inhibition at 50 µM
API: value field is a number in %; no unit string.

Reference set (5 entries):
{"columns": ["compound", "inhibition at 50 µM, %"],
 "data": [
  ["Cc1ccc(NC2=C([N+](=O)[O-])C3(C(=O)Nc4c(Br)cc(Br)cc43)C(C#N)=C(N)NN2)cc1 (stereo not shown)", 14.1],
  ["N#CC1=C(N)NNC(Nc2cccc(O)c2)=C([N+](=O)[O-])C12C(=O)Nc1c(C(F)(F)F)cccc12 (stereo not shown)", 10.4],
  ["N#CC1=C(N)NNC(Nc2cccc(O)c2)=C([N+](=O)[O-])C12C(=O)Nc1c(Br)cc(Br)cc12 (stereo not shown)", 37.1],
  ["N#CC1=C(N)NNC(Nc2ccc(O)cc2)=C([N+](=O)[O-])C12C(=O)Nc1c(Br)cc(Br)cc12 (stereo not shown)", 51.7],
  ["Cc1ccc(NC2=C([N+](=O)[O-])C3(C(=O)Nc4ccc(Cl)cc43)C(C#N)=C(N)NN2)cc1 (stereo not shown)", 18.1]
]}

# get_value(readout= inhibition at 50 µM, system= BChE (Homo sapiens, UniProt P06276)) for COc1ccc(NC2=C([N+](=O)[O-])C3(C(=O)Nc4c(C(F)(F)F)cccc43)C(C#N)=C(N)NN2)cc1 (stereo not shown)
13.4

Queued: Cc1ccccc1NC1=C([N+](=O)[O-])C2(C(=O)Nc3c(C(F)(F)F)cccc32)C(C#N)=C(N)NN1 (stereo not shown)
7.31

* * *

Below, each of the compounds is paired with its reported inhibition at 50 µM value.
Target: BChE (Homo sapiens, UniProt P06276)
Assay: BChE inhibition, modified Ellman method
Assay type: biochemical
Details: read-out: BChE % inhibition at 50 µM
Protocol: Cholinesterase inhibitory activities of all analogs were evaluated spectrometrically using the modified Ellman method as previously reported[40],[41]. […] The absorbance of each well was measured at 415 nm using a microplate reader. IC50 values and inhibition values were calculated with the software GraphPad Prism as the mean of three independent experiments and are expressed as mean ± SEM.
API: value field is a number in %; no unit string.

{"columns": ["compound", "target.or.test.system", "readout.name", "endpoint.value"],
 "data": [
  ["Cc1ccc(NC2=C([N+](=O)[O-])C3(C(=O)Nc4ccc([N+](=O)[O-])cc43)C(C#N)=C(N)NN2)cc1 (stereo not drawn)", "BChE (Homo sapiens, UniProt P06276)", "inhibition at 50 µM", 24.4]
]}

# inhibition at 50 µM lookup, item N#CC1=C(N)NNC(Nc2ccc(O)cc2)=C([N+](=O)[O-])C12C(=O)Nc1ccc([N+](=O)[O-])cc12 (stereo not drawn)
5.71

Queued: COc1ccc(OC)c(NC2=C([N+](=O)[O-])C3(C(=O)Nc4ccc([N+](=O)[O-])cc43)C(C#N)=C(N)NN2)c1 (stereo not drawn)
58.4

Queued: N#CC1=C(N)NNC(Nc2ccc(Cl)cc2)=C([N+](=O)[O-])C12C(=O)Nc1ccc([N+](=O)[O-])cc12 (stereo not drawn)
17.9

Queued: Cc1ccccc1NC1=C([N+](=O)[O-])C2(C(=O)Nc3ccc([N+](=O)[O-])cc32)C(C#N)=C(N)NN1 (stereo not drawn)
23.3

Queued: COc1ccc(NC2=C([N+](=O)[O-])C3(C(=O)Nc4ccc([N+](=O)[O-])cc43)C(C#N)=C(N)NN2)cc1 (stereo not drawn)
31.2
